Test system: Cryptococcus neoformans
Conditions: Concentration 32 ug.mL-1; ASSAY_TEST Inhibition of Fungal Growth; detection method Resazurin; Absorption (OD600-OD570); plate type 384well; NBS; CORNING #3640
Description: Antifungal activity against Cryptococcus neoformans H99 ATCC 208821 (CO-ADD:FG_002); MIC in YNB media using NBS plates, by Resazurin OD(600-570)
Measured potencies and affinities stand elsewhere.
OUTCOME_MEASURE: Inhibition (%)
Number in %, nothing else.

query: State the recorded Inhibition for this entry: COc1ccc(NC(=O)Cn2nc3c(SCc4ccc(Cl)cc4)nccn3c2=O)cc1OC
result: -20.96

query: Endpoint output: Inhibition of COc1cccc(NC(=O)Cn2nc3ccc(-c4ccc(Cl)cc4)nn3c2=O)c1 . Value?
result: -14.88

query: Item under review: Cc1ccc(-c2cc3c4nn(CC(=O)NC5CCCC5)c(=O)n4ccn3n2)cc1C . Reported Inhibition?
result: -13.73

query: Fill in: Inhibition of CCOC(=O)c1cccc(NC(=O)CSc2nnc3ccc(C(=O)Nc4cccc(F)c4)cn23)c1 is ___
result: -5.2

query: Given the molecule Cc1ccc(C)c(CN(c2cccc(Cl)c2)S(=O)(=O)c2cccn3c(C)nnc23)c1 , what is its reported Inhibition?
result: -8.33

query: For the molecule O=c1n(Cc2nc(-c3ccc(Cl)cc3)no2)nc2ccc(-c3ccccc3)nn12 , what Inhibition is on record?
result: -20.52

query: Please look up its Inhibition: CCc1ccc(NC(=O)Cn2nc3cc(C)nc(Nc4ccc(C)c(F)c4)n3c2=O)cc1
result: -2.27

query: So what's the measured Inhibition for this one? O=C(CSc1nc2ccccc2n2cnnc12)Nc1cccc(Br)c1
result: -6.2

query: Field request: Inhibition | item: Cc1cccc(Oc2nccn3c(=O)n(CC(=O)N4CCN(c5ccc(F)cc5)CC4)nc23)c1C
result: -7.63

query: Which Inhibition value belongs to Cc1ccccc1NC(=O)Cn1nc2ccc(SC3CCCCC3)nn2c1=O ?
result: -16.32

query: Could you tell me which Inhibition is on file for O=C(Cn1nc2c(SCc3ccccc3)nccn2c1=O)NCc1ccc(Cl)cc1 ?
result: -17.24

query: // returns reported Inhibition for input CCc1ccc(N(Cc2ccc(OC)cc2)S(=O)(=O)c2cccn3c(C)nnc23)cc1
result: -10.92

query: Sample C=Cc1ccc(CN(c2ccc(F)cc2)S(=O)(=O)c2ccc3nnc(C)n3c2)cc1 — what was its Inhibition?
result: -7.48

query: Look up Inhibition for this molecule: CC(C)Cn1c(=O)c2sccc2n2c(=O)n(CC(=O)NC(C)(C)C)nc12
result: -15.87

query: Find the recorded Inhibition belonging to COc1cccc(Oc2nccn3c(=O)n(CC(=O)NC4CCCCC4)nc23)c1 and report it.
result: -8.14

query: Any idea what its Inhibition is? The molecule is COc1cccc(CN(c2cc(C)cc(C)c2)S(=O)(=O)c2cccn3c(C)nnc23)c1
result: -6.64

query: Return reported Inhibition; argument: COc1ccc(NC(=O)Cn2nc3ccc(SCc4ccc(Cl)cc4)nn3c2=O)cc1Cl
result: -13.55

query: # input molecule: Cc1ccc(N(Cc2cccc(C)c2)S(=O)(=O)c2cccn3c(C)nnc23)cc1 ; wanted: its Inhibition
result: -6.62

query: Suppose we examine the molecule O=C(Cn1nc2c3c4c(sc3ncn2c1=O)CCCC4)N1CCc2ccccc2C1 ; what Inhibition value has been reported?
result: -11.61

query: Field request: Inhibition | item: CCOc1ccccc1NC(=O)Cn1nc2c(Sc3ccc(C)cc3C)nccn2c1=O
result: -9.54

query: Consider the molecule CCOc1ccc(-n2ccn3c(=O)n(CC(=O)Nc4ccc(Br)cc4)nc3c2=O)cc1 and give its measured Inhibition.
result: -3.26

query: # input molecule: COc1cc(OC)c(NC(=O)Cn2nc3ccc(Sc4cccc(F)c4)nn3c2=O)cc1Cl ; wanted: its Inhibition
result: -5.99

query: Given the entry Cc1ccc(NC(=O)Cn2nc3c(N4CCCC(C)C4)nccn3c2=O)cc1C (stereo not given) , report its measured Inhibition.
result: -9.99

query: Tell me the measured Inhibition of CCOc1ccc(-n2ccn3c(SCC(=O)Nc4ccc(C)c(C)c4)nnc3c2=O)cc1 , please.
result: -12.45

query: Report Inhibition for Cc1cc2nn(CC(=O)NCc3ccccc3)c(=O)n2c(Nc2ccc(C)c(F)c2)n1 please.
result: -3.12

query: Item Cc1cccc(N(CC(=O)OC(C)(C)C)S(=O)(=O)c2cccn3c(C)nnc23)c1 has what recorded Inhibition?
result: -7.45

query: Tell me the measured Inhibition of O=c1c2sccc2n2c(=O)n(Cc3cccc(Cl)c3)nc2n1CCc1ccccc1 , please.
result: -33.74

query: Can you share its Inhibition? I mean this molecule: COc1ccc(-c2cc3c4nn(CC(=O)Nc5ccccc5Cl)c(=O)n4ccn3n2)cc1
result: -15.65

query: # query: Inhibition of entry Cc1cc(C)c(NC(=O)Cn2nc3c(Sc4cccc(F)c4)nccn3c2=O)c(C)c1
result: -7.48

query: Look at this molecule and give its reported Inhibition. Cc1nnc2ccc(S(=O)(=O)N(Cc3ccccc3)c3ccc(F)cc3)cn12
result: -1.68

query: So what's the measured Inhibition for this one? Cc1nnc2c(SCC(=O)N3CCN(c4ccccc4F)CC3)nc3ccccc3n12
result: -3.27

query: Name the recorded Inhibition for O=C(Cn1nc2c(SC3CCCCC3)nccn2c1=O)N1CCN(c2ccc(F)cc2)CC1 .
result: -4.89

query: Please give the measured Inhibition for this molecule: Cc1ccc(Cn2nc3c(=O)n(-c4cccc(F)c4)ccn3c2=O)cc1
result: -10.74

query: Which Inhibition value is on record for O=C(Cn1nc2c(SC3CCCCC3)nccn2c1=O)N1CCN(c2ccccc2)CC1 ?
result: -1.45

query: // lookup Inhibition for Cc1cc2nn(CC(=O)NCc3ccc4c(c3)OCO4)c(=O)n2c(Nc2ccccc2C)n1
result: -19.18

query: Using the record for O=C(Cn1nc2c(Oc3ccccc3)nccn2c1=O)Nc1ccc(Br)cc1F , report its Inhibition.
result: -11.28

query: Reported Inhibition for COc1ccc(-c2cc3c4nn(CC(=O)Nc5ccc(OC)c(Cl)c5)c(=O)n4ccn3n2)cc1 : what is it?
result: -18.43

query: Consider the molecule shown here: O=C(Cn1nc2c3cc(-c4ccc(F)cc4)nn3ccn2c1=O)Nc1ccccc1 What is its recorded Inhibition?
result: -11.97

query: Fill in: Inhibition of CCOc1ccc(-n2ccn3c(SCC(=O)Nc4cccc(CC)c4)nnc3c2=O)cc1 is ___
result: -9.18

query: Field request: Inhibition | item: CCCCOc1ccc(-c2cc3c4nnc(SCC(=O)Nc5ccc(Cl)cc5)n4ccn3n2)cc1
result: -15.55
